Tested on: HSD1 enzyme that is expressed in rabbit placenta tissue
Assay procedure: Inhibition of E1 to E2 conversion in rabbit placenta tissue homogenate
Type: biochemical
Settings: inhibitor 100 nM, 30 nM estrone, 30 min
Description: The assay is based on an enzymatic reaction where HSD1 enzyme that is expressed in rabbit placenta tissue converts its natural substance estrone (E1) to estradiol (E2) in the presence of a co-factor β-NADPH. Homogenization of rabbit placenta tissue: Weight a piece of the frozen tissue into a Precellys ck28 bead tube. […] Percent inhibition was calculated flowingly: % inhibition=100−% conversion.
// rule not met strictly below 40% in Rabbit placenta inhibition % @100 nM; rule met otherwise

Query: Confirm if Rabbit placenta inhibition % @100 nM reported for the compound C[C@]12CCC3c4cccc(F)c4CCC3C1[C@H](CCC(=O)Nc1cnccn1)C/C2=N\O (stereo partly shown) is 40% or above.
Result: rule not met

Query: Confirm if Rabbit placenta inhibition % @100 nM reported for the compound C[C@]12CCC3c4cccc(F)c4CCC3C1[C@H](CCC(=O)Nc1nncs1)C/C2=N\O (stereo partly shown) is 40% or above.
Result: rule met

Query: Confirm if Rabbit placenta inhibition % @100 nM reported for the compound C[C@]12CCC3c4ccc(Cl)cc4CCC3C1[C@H](CCC(=O)Nc1cc3c([nH]c1=O)CCCC3)C/C2=N\O (stereo partly shown) is 40% or above.
Result: rule not met

Query: Confirm if Rabbit placenta inhibition % @100 nM reported for the compound CC(C)c1ccc(NC(=O)CC[C@@H]2C/C(=N\O)[C@@]3(C)CCC4c5cccc(F)c5CCC4C23)nc1 (stereo partly shown) is 40% or above.
Result: rule met

Query: Confirm if Rabbit placenta inhibition % @100 nM reported for the compound C[C@]12CCC3c4cccc(F)c4CCC3C1[C@H](CCC(=O)Nc1ccc(C#N)cn1)C/C2=N\O (stereo partly shown) is 40% or above.
Result: rule not met

* * *

System: HSD1 enzyme that is expressed in rabbit placenta tissue
Assay procedure: Inhibition of E1 to E2 conversion in rabbit placenta tissue homogenate
Format: biochemical
Settings: inhibitor 100 nM, 30 nM estrone, 30 min
// rule not met strictly below 20% in Rabbit placenta inhibition % @100 nM; rule met otherwise

A selection of reference data follows.
INSERT INTO measurements (molecule, assigned_label) VALUES
  ('Cc1cccnc1NC(=O)CC[C@@H]1C/C(=N\O)[C@@]2(C)CCC3c4ccc(Cl)cc4CCC3C12 (some centres unmarked) [Compound 60]', 'rule not met'),
  ('Cc1cc(NC(=O)CC[C@@H]2C/C(=N\O)[C@@]3(C)CCC4c5ccccc5CCC4C23)no1 (some centres unmarked) [Compound 110]', 'rule met'),
  ('CN1CCN(c2ccc(NC(=O)CC[C@@H]3C/C(=N\O)[C@@]4(C)CCC5c6ccccc6CCC5C34)nc2)CC1 (some centres unmarked) [Compound 86]', 'rule met'),
  ('CCN(CC)C(=O)CC[C@@H]1C/C(=N\O)[C@@]2(C)CCC3c4ccc(Cl)cc4CCC3C12 (some centres unmarked) [Compound 52]', 'rule not met'),
  ('Cc1ccnc(NC(=O)CC[C@@H]2C/C(=N\O)[C@@]3(C)CCC4c5cccc(F)c5CCC4C23)c1 (some centres unmarked) [Compound 130]', 'rule met');

Query: Confirm if Rabbit placenta inhibition % @100 nM reported for the molecule C[C@]12CCC3c4ccc(Cl)cc4CCC3C1[C@H](CCC(=O)Nc1cccnn1)C/C2=N\O (some centres unmarked) [Compound 44] is 20% or above.
Result: rule not met

Query: Confirm if Rabbit placenta inhibition % @100 nM reported for the molecule Cc1ccc(NC(=O)CC[C@@H]2C/C(=N\O)[C@@]3(C)CCC4c5ccc(F)cc5CCC4C23)nn1 (some centres unmarked) [Compound 32] is 20% or above.
Result: rule met

Query: Confirm if Rabbit placenta inhibition % @100 nM reported for the molecule C[C@]12CCC3c4ccccc4CCC3C1[C@H](CCC(=O)Nc1ncccc1F)C/C2=N\O (some centres unmarked) [Compound 160] is 20% or above.
Result: rule not met

Query: Confirm if Rabbit placenta inhibition % @100 nM reported for the molecule C[C@]12CCC3c4ccc(F)cc4CCC3C1[C@H](CCC(=O)Nc1ncccc1F)C/C2=N/O (some centres unmarked) [Compound 150b] is 20% or above.
Result: rule not met

Query: Confirm if Rabbit placenta inhibition % @100 nM reported for the molecule C[C@]12CCC3c4ccccc4CCC3C1[C@H](CCC(=O)Nc1ncccc1O)C/C2=N\O (some centres unmarked) [Compound 102] is 20% or above.
Result: rule not met

Query: Confirm if Rabbit placenta inhibition % @100 nM reported for the molecule C[C@]12CCC3c4ccc(F)cc4CCC3C1[C@H](CCC(=O)Nc1ncccc1F)C/C2=N\O (some centres unmarked) [Compound 150a] is 20% or above.
Result: rule not met

Query: Confirm if Rabbit placenta inhibition % @100 nM reported for the molecule C[C@]12CCC3c4ccccc4CCC3C1[C@H](CCC(=O)Nc1ccc(N3CCOCC3)cn1)C/C2=N\O (some centres unmarked) [Compound 90] is 20% or above.
Result: rule met

* * *

Test system: HSD1 enzyme that is expressed in rabbit placenta tissue
Assay procedure: Inhibition of E1 to E2 conversion in rabbit placenta tissue homogenate
Format: biochemical
Settings: inhibitor 100 nM, 30 nM estrone, 30 min
This listing pairs compounds with measured Rabbit placenta inhibition % @100 nM.
Quick reminder: number only, in %, skip the unit.

INSERT INTO measurements (compound, system_tested, reported_measurement) VALUES
  ('Cc1cnc(NC(=O)CC[C@@H]2C/C(=N\O)[C@@]3(C)CCC4c5ccccc5CCC4C23)o1 (some centres unmarked)', 'HSD1 enzyme that is expressed in rabbit placenta tissue', 20),
  ('C[C@]12CCC3c4cccc(F)c4CCC3C1[C@H](CCC(=O)Nc1cc(F)ccn1)C/C2=N\O (some centres unmarked)', 'HSD1 enzyme that is expressed in rabbit placenta tissue', 24),
  ('CN(C)C(=O)c1ccc(NC(=O)CC[C@@H]2C/C(=N\O)[C@@]3(C)CCC4c5cccc(F)c5CCC4C23)nc1 (some centres unmarked)', 'HSD1 enzyme that is expressed in rabbit placenta tissue', 34),
  ('C[C@]12CCC3c4ccc(Cl)cc4CCC3C1[C@H](CCC(=O)Nc1cnccn1)C/C2=N\O (some centres unmarked)', 'HSD1 enzyme that is expressed in rabbit placenta tissue', 13);

Proceed to the following item.
Query: For the compound C[C@]12CCC3c4cccc(F)c4CCC3C1[C@H](CCC(=O)NC1CCCCC1)C/C2=N\O (some centres unmarked) , give its reported Rabbit placenta inhibition % @100 nM.
Result: 4
